# maps each entry to its IC50
Target protein (sequence): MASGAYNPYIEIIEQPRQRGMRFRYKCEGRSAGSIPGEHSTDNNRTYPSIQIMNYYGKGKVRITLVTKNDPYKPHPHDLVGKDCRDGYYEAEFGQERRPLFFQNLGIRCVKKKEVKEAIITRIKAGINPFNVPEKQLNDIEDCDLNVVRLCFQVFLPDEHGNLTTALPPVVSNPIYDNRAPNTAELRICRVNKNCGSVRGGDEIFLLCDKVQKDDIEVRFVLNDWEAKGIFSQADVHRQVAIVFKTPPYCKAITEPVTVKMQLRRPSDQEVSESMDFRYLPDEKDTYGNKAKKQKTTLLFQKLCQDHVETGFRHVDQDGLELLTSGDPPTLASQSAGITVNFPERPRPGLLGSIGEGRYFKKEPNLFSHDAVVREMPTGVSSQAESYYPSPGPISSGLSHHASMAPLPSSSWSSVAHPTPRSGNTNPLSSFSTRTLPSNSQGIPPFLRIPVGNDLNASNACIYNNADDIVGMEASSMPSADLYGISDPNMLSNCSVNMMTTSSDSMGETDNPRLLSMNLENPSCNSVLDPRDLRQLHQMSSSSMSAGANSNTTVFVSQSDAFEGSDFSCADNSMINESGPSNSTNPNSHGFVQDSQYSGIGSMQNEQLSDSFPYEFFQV

* CCOc1cccc2cc3c(=O)[nH]c(=O)nc-3oc12 [compound 2] | < 2000 nM
* CC(=O)OCCCCOc1ccc2cc3c(=O)[nH]c(=O)nc-3oc2c1Cl [compound 60] | < 5000 nM
* CC(C)CCOc1cc2oc3nc(=O)[nH]c(=O)c-3cc2cc1F [compound 33] | < 500 nM
* CC(=O)OCCCCCCOc1ccc2cc3c(=O)[nH]c(=O)nc-3oc2c1Cl [compound 58] | < 5000 nM
* COCCCCOc1ccc2cc3c(=O)[nH]c(=O)nc-3oc2c1 [compound 67] | < 1000 nM
* COCCCCOc1cc2oc3nc(=O)[nH]c(=O)c-3cc2cc1F [compound 70] | < 1000 nM
* O=c1[nH]c(=S)nc2oc3cc(O)ccc3cc1-2 [compound 16] | < 500 nM
* CCCCOc1cc2oc3nc(=O)[nH]c(=O)c-3cc2cc1F [compound 29] | < 500 nM

# IC50 (compound: CCOc1ccc2cc3c(=O)[nH]c(=O)nc-3sc2c1 [compound 49] ) is < 1000 nM

# IC50 (compound: COCCOCCOc1ccc2cc3c(=O)[nH]c(=O)nc-3oc2c1 [compound 61] ) is < 1000 nM

# IC50 (compound: CCCCCOc1cc2oc3nc(=O)[nH]c(=O)c-3cc2cc1F [compound 30] ) is < 500 nM

# IC50 (compound: CCCCCCCOc1cc2oc3nc(=O)[nH]c(=O)c-3cc2cc1F [compound 32] ) is < 500 nM

# IC50 (compound: COc1ccc2oc3nc(=O)[nH]c(=O)c-3cc2c1 [compound 10] ) is < 1000 nM
